IC50 listing for selected compounds.
- Tested on: HTT mRNA
- assay method text: Gene panel canonical junction qPCR assay, decrease in CJ mRNA, Table 3
- Format: cell-based
- condition summary: decrease in CJ mRNA levels, canonical junction qPCR, gene panel
endpoint name: IC50

{"structure string": "Cc1cn2c(N3CCC(NC4CC4)CC3)ccc(C(=O)Nc3cc(CNS(C)(=O)=O)c4nn(C)cc4c3)c2n1", "target or test system": "HTT mRNA", "endpoint name": "IC50", "experimental result": "1 to 10 µM"}
{"structure string": "C=CCNC1CCN(c2ccc(C(=O)Nc3cc(CNC4(C)COC4)c4nn(C)cc4c3)c3nn(C)cc23)CC1", "target or test system": "HTT mRNA", "endpoint name": "IC50", "experimental result": "> 10 µM"}
{"structure string": "CCNC1CCN(c2ccc(C(=O)Nc3cn4cc(C)nc(CC(=O)NC)c4n3)c3nn(C)cc23)CC1", "target or test system": "HTT mRNA", "endpoint name": "IC50", "experimental result": "> 10 µM"}
{"structure string": "Cc1cn2cc(NC(=O)c3ccc(N4CCC(N)CC4)c4cn(C)nc34)nc2c(CNS(C)(=O)=O)n1", "target or test system": "HTT mRNA", "endpoint name": "IC50", "experimental result": "> 10 µM"}
{"structure string": "COc1c(NC(=O)c2ncc(N3CCNCC3)c3cn[nH]c23)cn2cc(C)nc2c1F", "target or test system": "HTT mRNA", "endpoint name": "IC50", "experimental result": "> 10 µM"}
{"structure string": "COc1nc2c(C(=O)Nc3cc(CO)c4nn(C)cc4c3)ccc(N3C[C@H](C)N[C@@H](C)C3)c2s1", "target or test system": "HTT mRNA", "endpoint name": "IC50", "experimental result": "> 10 µM"}
{"structure string": "Cc1cn2cc(NC(=O)c3ccc(N4CCC(N(C)C)CC4)c4cn(C)nc34)nc2c(CNS(C)(=O)=O)n1", "target or test system": "HTT mRNA", "endpoint name": "IC50", "experimental result": "> 10 µM"}

---

- Test system: HTT mRNA
- assay method text: Splicing RT-qPCR assay (THP), Table 2A
- Assay type: cell-based
- condition summary: Table 2A (THP), CJ mRNA decrease, read-out: HTT CJ (decrease in canonical junction mRNA, IC50)
pIC50: −log10 of the molar value. Structures can show the parent of a compound that is named as a salt.

{"compound": "COc1c(NC(=O)c2c(F)cc(N3CCC(NC4CC4)CC3)c3cn(C)nc23)cc2cn(C)nc2c1Cl", "pIC50": "6.00 to 7.00"}
{"compound": "Cc1cn2cc(NC(=O)c3ccc(N4CCC(NC5(C)CC5)CC4)c4cn(C)nc34)cc(F)c2n1", "pIC50": "6.00 to 7.00"}
{"compound": "Cc1cn2cc(NC(=O)c3c(F)cc(N4CCC(NC5CC5)CC4)c4cn(C)nc34)nc2c(CN)n1", "pIC50": "< 5.00"}
{"compound": "CCNC1CCN(c2cc(F)c(C(=O)Nc3cn4cc(C)nc(C#N)c4n3)c3nn(C)cc23)CC1", "pIC50": "< 5.00"}
{"compound": "CCNC1CCN(c2cc(F)c(C(=O)Nc3nc4c(C)nc(C)cc4n3C)c3nn(C)cc23)CC1 [Compound 402, trifluoroacetate]", "pIC50": "< 5.00"}
{"compound": "CCNC1CCN(c2cc(F)c(C(=O)Nc3cn4cc(C)nc4c(Cl)c3OC)c3nn(C)cc23)CC1", "pIC50": "6.00 to 7.00"}
{"compound": "Cc1cn2cc(NC(=O)c3c(F)cc(N4CCC(NC5CC5)CC4)c4cn(C)nc34)nc2cn1", "pIC50": "< 5.00"}

---

- Test system: MYB mRNA
- assay method text: Gene panel canonical junction qPCR assay, decrease in CJ mRNA, Table 3
- Type: cell-based
- condition summary: decrease in CJ mRNA levels, canonical junction qPCR, gene panel
pIC50: −log10 of the molar value.
pIC50 listing for selected compounds.

{"compound": "COc1nc2nc(C)cn2cc1NC(=O)c1cnc(N2CCC(NC3CC3)CC2)c2cn(C)nc12", "pIC50": "> 7.00"}
{"compound": "CN(C)c1ccc(C(=O)Nc2cc(CNS(C)(=O)=O)c3nn(C)cc3c2)c2nn(C)cc12", "pIC50": "< 5.00"}
{"compound": "COc1nc2c(C(=O)Nc3cccc4c3cnn4C)ccc(N3C[C@H](C)N[C@@H](C)C3)c2s1", "pIC50": "< 5.00"}
{"compound": "Cc1cn2nc(NC(=O)c3ccc(N4CCC(NC5CC5)CC4)c4cn(C)nc34)cc(CNS(C)(=O)=O)c2n1", "pIC50": "< 5.00"}
{"compound": "Cc1cn2cc(NC(=O)c3ccc(N(C)C)c4cn(C)nc34)nc2c(CNS(C)(=O)=O)n1", "pIC50": "5.00 to 6.00"}
{"compound": "Cc1cn2cc(NC(=O)c3cnc(N4CCC(NC5CC5)CC4)c4cn(C)nc34)nc2c(C)n1", "pIC50": "6.00 to 7.00"}
{"compound": "COc1nc2c(C(=O)Nc3cc(F)c4nn(C)cc4c3)ccc(N3CCNC(C)C3C)c2s1 (stereo not drawn)", "pIC50": "6.00 to 7.00"}
{"compound": "COc1nc2c(C(=O)Nc3cc4cn(C)nc4c(F)c3OC)ccc(N3C[C@H](C)N[C@@H](C)C3)c2s1", "pIC50": "6.00 to 7.00"}
{"compound": "COc1nc2c(C(=O)Nc3cn4cc(C)nc4c(F)c3OC)ccc(N3C[C@H](C)N[C@@H](C)C3)c2s1 [Compound 764, 2,2,2-trifluoroacetate]", "pIC50": "> 7.00"}
{"compound": "Cc1cn2cc(NC(=O)c3ccc(N4CCC(NC5CC5)CC4)c4cn(C)nc34)nc2c(CC2CCOC2)n1 (stereo not drawn) [Compound 722, 2,2,2-trifluoroacetate]", "pIC50": "< 5.00"}
{"compound": "Cn1cc2cc(NC(=O)c3ccc(N4CCC(NC5CC5)CC4)c4cn(C)nc34)cc(CO)c2n1", "pIC50": "5.00 to 6.00"}
{"compound": "COc1cc2c(N3CCC(NC4CC4)CC3)ccc(C(=O)Nc3cn4cc(C)nc4c(OC)n3)n2n1", "pIC50": "> 7.00"}
{"compound": "COc1nc2c(C(=O)Nc3cc(F)c4nn(C)cc4c3)ccc(N3CCN4CCCC[C@H]4C3)c2s1", "pIC50": "6.00 to 7.00"}
{"compound": "Cc1cn2cc(NC(=O)c3ccc(N4CCC(NC5CC5)CC4)c4cc(CF)nn34)cc(F)c2n1", "pIC50": "> 7.00"}
{"compound": "C[C@H]1CN(c2ccc(C(=O)Nc3cc(F)c4nn(C)cc4c3)c3sc(OCc4ccnn4C)nc23)C[C@H](C)N1", "pIC50": "< 5.00"}

---

- Test system: HTT mRNA
- assay method text: Splicing RT-qPCR assay, canonical (CJ) and alternative (AJ) junction mRNA, K562 cells
- Format: cell-based
- condition summary: Homo sapiens, K562.3 cells, 24 hours, read-out: HTT AJ (AC50, increase in AJ mRNA)
AC50 listing for selected compounds.
endpoint name: AC50

{"compound": "CCNC1CCN(c2ccc(C(=O)Nc3cc(F)c4nc(C)cn4c3)c3c2nnn3C)CC1 [Compound 198, 2,2,2-trifluoroacetate]", "endpoint name": "AC50", "experimental result": "> 10 µM"}
{"compound": "Cc1cn2cc(NC(=O)c3ccc(C4CCC(NC5CC5)CC4)c4cn(C)nc34)cc(F)c2n1 (stereo not shown) [Compound 192]", "endpoint name": "AC50", "experimental result": "1 to 10 µM"}
{"compound": "CCNC1CCN(c2ccc(C(=O)Nc3ccc4nc(C)cn4c3)c3nn(C)cc23)CC1 [Compound 176]", "endpoint name": "AC50", "experimental result": "> 10 µM"}
{"compound": "COCC1(N[C@@H]2CCN(c3ccc(C(=O)Nc4cc(F)c5nc(C)cn5c4)c4nn(C)cc34)C2)CC1 [Compound 119]", "endpoint name": "AC50", "experimental result": "> 10 µM"}

---

- System: HTT mRNA
- assay method text: Splicing RT-qPCR assay (THP), Table 2A
- Assay type: cell-based
- condition summary: Table 2A (THP), CJ mRNA decrease, read-out: HTT CJ (decrease in canonical junction mRNA, IC50)
pIC50: −log10 of the molar value.
endpoint name: pIC50

{"compound": "CCOc1cc2nn(C)cc2cc1NC(=O)c1c(F)cc(N2CCC(NC3CC3)CC2)c2cn(C)nc12 [Compound 415]", "experimental result": "6.00 to 7.00"}
{"compound": "Cc1cn2cc(NC(=O)c3ccc(N4CCC(NC5CC5)CC4)c4cn(C)nc34)nc2c(-c2cnoc2)n1 [Compound 462]", "experimental result": "< 5.00"}
{"compound": "COc1c(NC(=O)c2ccc(N3CCC(NC4CC4)CC3)c3cn(C)nc23)cc2cn(C)nc2c1Cl [Compound 461]", "experimental result": "6.00 to 7.00"}
{"compound": "CCNC1(C)CCN(c2cc(F)c(C(=O)Nc3cn4cc(C)nc(C)c4n3)c3nn(C)cc23)CC1 [Compound 375]", "experimental result": "5.00 to 6.00"}
